- Target under test: BoNT/A LC (Clostridium botulinum, UniProt P0DPI0)
- Sequence (P0DPI0 2-425 limits assumed): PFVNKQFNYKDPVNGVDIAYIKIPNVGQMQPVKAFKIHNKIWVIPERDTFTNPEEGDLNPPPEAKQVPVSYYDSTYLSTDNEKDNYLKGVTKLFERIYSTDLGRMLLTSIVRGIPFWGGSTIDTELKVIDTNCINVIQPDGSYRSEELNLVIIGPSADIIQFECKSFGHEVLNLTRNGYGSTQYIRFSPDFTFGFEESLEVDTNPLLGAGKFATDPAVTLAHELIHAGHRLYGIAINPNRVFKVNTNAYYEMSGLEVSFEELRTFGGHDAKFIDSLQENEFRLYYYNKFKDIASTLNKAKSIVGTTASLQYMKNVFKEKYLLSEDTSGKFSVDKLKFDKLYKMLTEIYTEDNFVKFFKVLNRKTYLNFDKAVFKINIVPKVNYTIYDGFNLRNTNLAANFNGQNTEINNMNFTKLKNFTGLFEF
- Type: biochemical
Assay endpoint: inhibition of BoNT/A in 66-mer assay (in words)

[
  {
    "Compound": "O=C(NCc1ccc(-c2ccccc2)cc1)c1nc[nH]n1",
    "Measured": "high IC50 values"
  },
  {
    "Compound": "COc1ccc(OC)c(Nc2cccc(C(=O)NCc3ccc(Oc4ccccc4)cc3)n2)c1",
    "Measured": "decrease in activity"
  },
  {
    "Compound": "COc1ccc(OC)c(Cn2cnc(C(=O)NCc3ccc(-c4ccccc4)cc3)n2)c1",
    "Measured": "decrease in activity"
  },
  {
    "Compound": "O=C(NCc1ccc(Oc2ccccc2)cc1)c1ccccn1 [Compound 35, N-(4-phenoxybenzyl)picolinamide]",
    "Measured": "high IC50 values"
  }
]
